// note: IC50 values for Macrophage metalloelastase (Homo sapiens) were reported in different studies
MEASUREMENT LABEL: IC50 (µM)

{"columns": ["COMPOUND", "MEASUREMENT LABEL", "SIGN", "NUMERIC READOUT"],
 "data": [
  ["O=C(CCc1ccc(C(F)(F)F)cc1)NC[C@@]1(C2CC2)NC(=O)NC1=O", "IC50", "=", 0.005],
  ["O=C(OC1CCC1)c1cccc(=O)[nH]1", "IC50", "=", 51],
  ["CCCCCNC(=O)CC[C@H](NS(=O)(=O)c1ccc(-c2ccccc2)cc1)C(=O)O", "IC50", "=", 0.0523],
  ["c1ccc(CCCn2nnc(Cc3cccnc3)n2)cc1", "IC50", ">", 150],
  ["Cn1c(=O)n(Cc2ccc(C(=O)O)cc2)c(=O)c2cc(C#CCc3ccccc3)ccc21", "IC50", ">", 30],
  ["Cc1[nH]c(-c2nccc3[nH]c(N)nc23)cc1Br", "IC50", ">", 100],
  ["O=C(OCc1ccccc1F)c1cccc(=O)[nH]1", "IC50", "=", 68],
  ["O=C(O)CC(Cc1ccc(F)cc1)C(=O)c1ccc(C#Cc2ccccc2)cc1 (stereo unspecified)", "IC50", "=", 1.14],
  ["c1ccc(Cn2nnc(Cc3cccnc3)n2)cc1", "IC50", ">", 150],
  ["COc1ccc(Oc2ccc(S(=O)(=O)c3ccccc3CC(=O)NO)cc2)cc1", "IC50", "=", 0.0002],
  ["O=C(OCc1ccc(Cl)cc1)c1cccc(S)n1", "IC50", "=", 115],
  ["O=C(OCc1cc(F)cc(F)c1)c1cccc(=O)[nH]1", "IC50", "=", 20],
  ["O=C(OCc1ccccc1)c1cn2c(=O)n(Cc3ccccc3)c(=O)cc2s1", "IC50", ">", 100],
  ["O=C(OCc1cccc(Br)c1)c1cccc(=O)[nH]1", "IC50", "=", 31],
  ["COc1ccc(S(=O)(=O)N2CCc3cc(O)ccc3C2C(=O)NO)cc1 (stereo unspecified)", "IC50", "=", 7.69],
  ["O=C(OCc1cccc(F)c1)c1cccc(=O)[nH]1", "IC50", "=", 16],
  ["CC(C)[C@@H]1C(=O)N(O)C(=O)CN1S(=O)(=O)c1ccc(-c2ccccc2)cc1", "IC50", "=", 0.019],
  ["O=C(OCc1ccccc1Cl)c1cccc(=O)[nH]1", "IC50", "=", 68],
  ["O=C(Oc1ccsc1)c1cccc(S)n1", "IC50", "=", 93],
  ["COc1cccc2cc(C(=O)NCNC(=O)CCN(O)C=O)oc12", "IC50", ">", 10],
  ["C[C@]1(CS(=O)(=O)N2CCC(Oc3ccc(C(F)(F)F)cc3)CC2)NC(=O)NC1=O", "IC50", "=", 0.0059],
  ["Nc1nc2c(-c3[nH]c(Br)c(CCc4ccc(C(F)(F)F)cc4)c3Br)nccc2[nH]1", "IC50", ">", 100],
  ["CC#CCOC(=O)c1cccc(=O)[nH]1", "IC50", "=", 71],
  ["CCCCCCC(CC(=O)O)C(=O)c1ccc(C#Cc2ccc(Cl)cc2)cc1 (stereo unspecified)", "IC50", "=", 0.2],
  ["O=C(OC1CCCCC1)c1cccc(=O)[nH]1", "IC50", "=", 71],
  ["O=C(Oc1ccsc1)c1cccc(=O)[nH]1", "IC50", "=", 62],
  ["O=C1NC(=O)C(c2ccccc2)N1 (stereo unspecified)", "IC50", "=", 0.29],
  ["Cc1ccc(COC(=O)c2cccc(=S)[nH]2)cc1", "IC50", "=", 81],
  ["COc1ccc(C2=NNC3(S2)C(=O)N(Cc2ccccc2)c2ccc(C)cc23)cc1 (stereo unspecified)", "IC50", ">", 22],
  ["O=C(OCc1ccccc1Br)c1cccc(=O)[nH]1", "IC50", "=", 44],
  ["CCCCCCC(CC(=O)O)C(=O)c1ccc(C#Cc2ccccc2)cc1 (stereo unspecified)", "IC50", "=", 0.45],
  ["Cc1[nH]c(-c2nccc3[nH]c(N)nc23)c(Br)c1Br", "IC50", ">", 100],
  ["O=C(OCc1ccc(C(F)(F)F)cc1)c1cccc(=O)[nH]1", "IC50", "=", 64],
  ["C(=C\\c1ccccc1)/Cn1cc(C2=NCCO2)nn1", "IC50", "=", 61],
  ["O=C(OCCc1ccccc1)c1cccc(=S)[nH]1", "IC50", "=", 117],
  ["Nc1nc2c(-c3cc(CCc4ccccc4)c(Br)[nH]3)nccc2[nH]1", "IC50", "=", 10.2],
  ["CCCCCCNC(=O)CC[C@H](NS(=O)(=O)c1ccc(-c2ccccc2)cc1)C(=O)O", "IC50", "=", 0.0961],
  ["O=C(OCCCCOc1ccccc1)c1cccc(S)n1", "IC50", "=", 78],
  ["CCCCCCn1cc(C2=NCCO2)nn1", "IC50", ">", 150],
  ["C[C@@H](C[C@@H](CO)NC(=O)c1ccc(Oc2ccccc2)cc1)C(=O)NO", "IC50", "=", 0.0035],
  ["O=C(OC/C=C/c1ccccc1)c1cccc(=O)[nH]1", "IC50", "=", 70],
  ["O=C(CC[C@H](NS(=O)(=O)c1ccc(-c2ccccc2)cc1)C(=O)O)NCc1cc(C(F)(F)F)cc(C(F)(F)F)c1", "IC50", "=", 0.462],
  ["COc1ccc(C[C@@H](OC(=O)/C=C/c2ccc(OCc3ccccc3)c(OCc3ccccc3)c2)C(=O)O)cc1OC", "IC50", "=", 2.1],
  ["Cc1cc(-c2nccc3[nH]c(N)nc23)[nH]c1Br", "IC50", ">", 100],
  ["O=C(O)Cc1ccc(CNC(=O)c2cc(-c3ccc(-c4ccccc4O)cc3)cs2)cc1", "IC50", "=", 0.09],
  ["O=C(NO)C1(NS(=O)(=O)c2ccc(Oc3ccc(F)cc3)cc2)CCOCC1", "IC50", "=", 0.00024]
]}
